Biological target: recombinant human GR (Homo sapiens, UniProt P04150)
Sequence (P04150 whole entry): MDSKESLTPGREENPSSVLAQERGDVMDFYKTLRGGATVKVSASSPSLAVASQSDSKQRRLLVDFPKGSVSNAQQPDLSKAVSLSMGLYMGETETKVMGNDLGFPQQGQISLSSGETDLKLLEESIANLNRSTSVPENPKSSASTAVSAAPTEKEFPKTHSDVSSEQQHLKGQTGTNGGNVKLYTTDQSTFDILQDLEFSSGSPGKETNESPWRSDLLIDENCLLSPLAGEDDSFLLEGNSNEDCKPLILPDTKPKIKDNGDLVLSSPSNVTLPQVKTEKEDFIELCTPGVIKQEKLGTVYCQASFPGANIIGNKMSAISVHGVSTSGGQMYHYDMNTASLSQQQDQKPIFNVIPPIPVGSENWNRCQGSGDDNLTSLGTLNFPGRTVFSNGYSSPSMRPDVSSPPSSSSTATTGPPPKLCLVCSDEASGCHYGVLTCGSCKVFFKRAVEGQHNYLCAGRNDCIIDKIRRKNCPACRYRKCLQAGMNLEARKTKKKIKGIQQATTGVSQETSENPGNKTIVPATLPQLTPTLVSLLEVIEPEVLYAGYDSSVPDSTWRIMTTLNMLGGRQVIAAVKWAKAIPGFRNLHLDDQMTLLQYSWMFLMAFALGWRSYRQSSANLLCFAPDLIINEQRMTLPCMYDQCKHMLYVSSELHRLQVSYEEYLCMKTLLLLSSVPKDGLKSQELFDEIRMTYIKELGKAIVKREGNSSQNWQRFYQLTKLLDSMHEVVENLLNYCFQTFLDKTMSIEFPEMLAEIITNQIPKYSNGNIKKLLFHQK
Experiment: Human Glucocorticoid Receptor (GR) Assay, fluorescence polarization
Conditions: GS Red tracer, incubated 2 h at r.t., XLfit model 205, read-out: GRhuFL_FP_v2 Mean IC50
Reported IC50 values follow for various compounds
Please report the result as a number followed by the unit.

C[C@H](NC(=O)C(F)(F)F)[C@H](Oc1ccc2c(cnn2C2CCCC2)c1)c1ccccc1 | 2.5 nM
CC(=O)N[C@@H](C)[C@H](Oc1cc2cnn(-c3ccc(F)cc3)c2cc1Cl)c1ccc(F)cc1 (single isomer, unassigned) [Example 102] | 2.5 nM
COc1cccc([C@@H](Oc2ccc3c(cnn3-c3ccc(F)cc3)c2)[C@H](C)NC(=O)CNC(N)=O)c1 | 8.1 nM
Cc1ccc([C@@H](Oc2ccc3c(cnn3-c3ccc(F)cc3)c2)[C@H](C)NC(=O)C(C)(C)CO)cc1F | 4.7 nM
CCc1cccc([C@@H](Oc2ccc3c(cnn3-c3ccc(F)cc3)c2)[C@H](C)NC(=O)C(F)(F)F)c1 | 4.7 nM
C[C@H](NC(=O)C(Cl)Cl)[C@H](Oc1ccc2c(cnn2-c2ccc(F)cc2)c1)c1ccccc1 | 6.4 nM

What value of measured IC50 is listed for C[C@H](NC(=O)C(C)(C)C)[C@H](Oc1ccc2c(cnn2-c2ccc(F)cc2)c1)c1cccc(F)c1 ?
4.1 nM
